Numbers sourced from patent US20100320428A1.

Assay: Dielectric strength by ASTM D2477
Type: physicochemical
Details: 1 atmosphere pressure, 0.1 inch gap, ambient temperature; ASTM D2477 or from literature
Measured Metric: Dielectric strength
State the value with its unit after it.

Task item: I am curious: what Dielectric strength value has been reported for FC(F)C(F)(F)F ?
Reply: 6.4 kV/0.1 inch gap

Task item: Proceed to FCC(F)(F)F [Gas R134a, 1,1,1,2-Tetrafluoroethane]
Reply: 6.6 kV/0.1 inch gap

Task item: Same question for FS(F)(F)(F)(F)F [SF6, Sulfur hexafluoride] please.
Reply: 14.0 kV/0.1 inch gap

Task item: How about CC(F)(F)F [Gas R143a, 1,1,1-Trifluoroethane] ?
Reply: 5.8 kV/0.1 inch gap

Task item: Same for CC(F)F [Gas R152a, 1,1-Difluoroethane]
Reply: 5.9 kV/0.1 inch gap

###

Exercise: state measured Breakdown voltage at maximum pressure for each of the compounds provided.
Experiment: Breakdown voltage at maximum system pressure
Assay type: physicochemical
Conditions: at maximum pressure: 5 atmospheres (73.5 psia), or lower pressure at which the gas liquefies
Expressed in kV/0.1 inch gap, but write only the number.

Task item: Name the reported Breakdown voltage at maximum pressure value associated with the compound CC(F)F [Gas R152a, 1,1-Difluoroethane]
Reply: 29.5

Task item: Please give the result for CC(F)(F)F [Gas R143a, 1,1,1-Trifluoroethane] too.
Reply: 29

Task item: Please do the same for FC(F)C(F)(F)F as well.
Reply: 32

Task item: Here is the next compound: FS(F)(F)(F)(F)F [SF6, Sulfur hexafluoride]
Reply: 70

Task item: Item: FCC(F)(F)F [Gas R134a, 1,1,1,2-Tetrafluoroethane]
Reply: 33
